- MEASURED_ON: Hsp90α (Homo sapiens, UniProt P07900)
- ASSAY_DETAILS: biochemical
pIC50: −log10 of the molar value.
MEASUREMENT_NAME: pIC50

Query string: Supply pIC50 value. Item: C#CCCCn1cnc(N)c2nc(Sc3ccc(C)cc3C)nc1-2
Result string: < 3.60

----------
- MEASURED_ON: Grp94 (Canis lupus familiaris)
- EXPERIMENTAL_CONTEXT: read-out: Grp94; FP competition, 6 nM Cy3B-GM, 10 nM protein, 4° C. for 24 h
MEASUREMENT_NAME: IC50 (nM)
Write the value in nM as a bare number.

Example entries begin here.
[
  {
    "MOLECULE": "C#CCCCn1c(Cc2cc(Cl)cc(Cl)c2)nc2c(N)ncnc21",
    "IC50 [nM]": 500
  },
  {
    "MOLECULE": "CC#CCn1cnc(N)c2nc(Sc3cc(Cl)cc(Cl)c3)nc1-2 [PDP-102B]",
    "IC50 [nM]": 10300
  },
  {
    "MOLECULE": "COC(C)CNCCn1c(Sc2cc(Cl)cc(Cl)c2)nc2c(N)ncnc21 (stereo not shown) [SO-III-75A]",
    "IC50 [nM]": 890
  },
  {
    "MOLECULE": "CC(CO)NCCn1c(Sc2ccc(Cl)cc2Cl)nc2c(N)ncnc21 (stereo not shown)",
    "IC50 [nM]": 210
  },
  {
    "MOLECULE": "C#CCCCn1c(Sc2ccc(Br)cc2CC)nc2c(N)ncnc21",
    "IC50 [nM]": 660
  }
]

Query string: Supply IC50 value. Item: C/C=C/c1cc(Cl)cc(Sc2nc3c(N)ncnc3n2CCCNC(C)C)c1
Result string: 340

----------
Recorded pIC50 by entry
- MEASURED_ON: Hsp90α (Homo sapiens)
- ASSAY_DETAILS: biochemical
- EXPERIMENTAL_CONTEXT: FP competition, 6 nM Cy3B-GM, 10 nM protein, 4° C. for 24 h
pIC50: −log10 of the molar value.

[
  {
    "COMPOUND": "C#CCCCn1cnc(N)c2nc(Sc3ccc(Br)cc3CC)nc1-2",
    "RESULT": "< 4.30"
  }
]

Query string: Find the measured pIC50 of C#CCCCn1c(Sc2ccc(C(F)(F)F)cc2C(F)(F)F)nc2c(N)ncnc21 with Hsp90α (Homo sapiens) as test system.
Result string: < 4.00

Query string: Find the measured pIC50 of COc1ccc(-c2cc(Cl)cc(Sc3nc4c(N)ncnc4n3CCCNC(C)C)c2)cc1 with Hsp90α (Homo sapiens) as test system.
Result string: < 4.60

Query string: Find the measured pIC50 of C#CCCCn1cnc(N)c2nc(Sc3ccccc3CO)nc1-2 with Hsp90α (Homo sapiens) as test system.
Result string: < 4.00

Query string: Find the measured pIC50 of Nc1ncnc2c1nc(Sc1cc(Cl)cc(Cl)c1)n2CCCCC(F)(F)F [PDP-109A] with Hsp90α (Homo sapiens) as test system.
Result string: < 4.00

Query string: Find the measured pIC50 of C[C@H](O)CNCCn1c(Sc2ccc(Cl)cc2Cl)nc2c(N)ncnc21 with Hsp90α (Homo sapiens) as test system.
Result string: < 4.30

Query string: Find the measured pIC50 of Nc1ncnc2c1nc(Sc1cc(Cl)cc(Cl)c1)n2CC1CCCCC1 [PDP-110A] with Hsp90α (Homo sapiens) as test system.
Result string: < 4.00

Query string: Find the measured pIC50 of C#CCCCn1c([S+]([O-])c2ccc(Cl)cc2Cl)nc2c(N)ncnc21 (stereo not drawn) [HJP-V-62M] with Hsp90α (Homo sapiens) as test system.
Result string: 4.62

Query string: Find the measured pIC50 of CC#Cc1cc(Cl)cc(Sc2nc3c(N)ncnc3n2CCCNC(C)C)c1 with Hsp90α (Homo sapiens) as test system.
Result string: < 4.30

----------
Recorded IC50 by entry
- MEASURED_ON: Grp94 (Canis lupus familiaris, UniProt P41148)
- Sequence (P41148 with tags, fused parts or gaps DELINS287-327GGGG): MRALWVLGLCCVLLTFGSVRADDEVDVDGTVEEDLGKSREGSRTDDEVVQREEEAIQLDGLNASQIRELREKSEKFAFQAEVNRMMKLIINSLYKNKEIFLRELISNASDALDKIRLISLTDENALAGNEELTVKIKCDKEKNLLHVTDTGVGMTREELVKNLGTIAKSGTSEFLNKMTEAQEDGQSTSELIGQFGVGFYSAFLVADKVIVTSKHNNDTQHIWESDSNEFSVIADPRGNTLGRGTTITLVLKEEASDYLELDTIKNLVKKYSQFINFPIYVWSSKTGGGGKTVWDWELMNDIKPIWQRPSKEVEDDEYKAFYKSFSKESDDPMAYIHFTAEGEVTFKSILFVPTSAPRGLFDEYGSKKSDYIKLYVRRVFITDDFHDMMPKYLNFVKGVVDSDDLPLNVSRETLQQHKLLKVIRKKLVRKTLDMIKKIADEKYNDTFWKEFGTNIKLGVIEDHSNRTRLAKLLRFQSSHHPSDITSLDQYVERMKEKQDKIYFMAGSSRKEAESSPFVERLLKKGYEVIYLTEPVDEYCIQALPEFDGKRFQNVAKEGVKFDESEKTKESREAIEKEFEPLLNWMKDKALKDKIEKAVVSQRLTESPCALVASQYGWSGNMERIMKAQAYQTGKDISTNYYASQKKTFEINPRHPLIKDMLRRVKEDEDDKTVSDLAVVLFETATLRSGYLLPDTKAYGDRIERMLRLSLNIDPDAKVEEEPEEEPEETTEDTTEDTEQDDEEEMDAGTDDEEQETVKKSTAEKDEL
- EXPERIMENTAL_CONTEXT: read-out: Grp94; FP competition, 6 nM Cy3B-GM, 10 nM protein, 4° C. for 24 h

Example entries begin here.
[
  {
    "COMPOUND": "CCCCn1c(Cc2ccc(OC)cc2)nc2c(N)ncnc21",
    "IC50": "3.2 µM"
  },
  {
    "COMPOUND": "Nc1ncn(CCCCC(F)(F)F)c2nc(Sc3cc(Cl)cc(Cl)c3)nc1-2 [PDP-109B]",
    "IC50": "> 5 µM"
  }
]

Query string: Supply IC50 value. Item: C#CCCCn1cnc(N)c2nc(Sc3c(C)cc(C)cc3C)nc1-2
Result string: 20 µM

Query string: Supply IC50 value. Item: C#CCCCn1c(Sc2c(C)cc(C)cc2C)nc2c(N)ncnc21
Result string: 2.1 µM

Query string: Supply IC50 value. Item: C#CCCCn1c(Sc2cc(Cl)cc(Cl)c2Cl)nc2c(N)ncnc21 [PDP-125A]
Result string: 0.19 µM

Query string: Supply IC50 value. Item: C#CCCCn1c(Sc2ccccc2Cl)nc2c(N)ncnc21
Result string: 0.35 µM

Query string: Supply IC50 value. Item: C#CCCCn1c(Cc2cc(Cl)ccc2Cl)nc2c(N)ncnc21
Result string: 0.75 µM

Query string: Supply IC50 value. Item: CC(C)NCCCn1c(Sc2cc(Cl)cc(C#CC3CC3)c2)nc2c(N)ncnc21
Result string: 0.18 µM

----------
- MEASURED_ON: Grp94 (Canis lupus familiaris)
- EXPERIMENTAL_CONTEXT: read-out: Grp94; FP competition, 6 nM Cy3B-GM, 10 nM protein, 4° C. for 24 h
MEASUREMENT_NAME: IC50 (nM)
Write the value in nM as a bare number.

[
  {
    "COMPOUND": "CC(C)C#Cc1cc(Cl)cc(Sc2nc3c(N)ncnc3n2CCCNC(C)C)c1",
    "MEASUREMENT_NAME": "IC50",
    "UNIT_ABBREV": "nM",
    "NUMBER": 1200
  }
]

Query string: Supply IC50 value. Item: Nc1ncnc2c1nc(Sc1cc(Cl)cc(Cl)c1)n2CCCC(F)(F)F
Result string: 460

Query string: Supply IC50 value. Item: Nc1ncnc2c1nc(Sc1cc(Cl)cc(Cl)c1)n2CC1CCCCC1 [PDP-110A]
Result string: 4340

Query string: Supply IC50 value. Item: CC(C)(C)NCCCn1c(Sc2cc(Cl)cc(Cl)c2)nc2c(N)nc(F)nc21
Result string: 156

Query string: Supply IC50 value. Item: CC(C)NCCCn1c(Sc2cc(Cl)cc(/C=C/C3CC3)c2)nc2c(N)ncnc21
Result string: 240

Query string: Supply IC50 value. Item: C#CCCCn1c(Sc2ccc(Cl)cc2)nc2c(N)ncnc21
Result string: 1500

Query string: Supply IC50 value. Item: C/C=C(\C)c1cc(Cl)cc(Sc2nc3c(N)ncnc3n2CCCNC(C)C)c1
Result string: 124

Query string: Supply IC50 value. Item: Nc1ncnc2c1nc(Sc1ccc(Cl)cc1Cl)n2CCc1ccncc1
Result string: 1030

Query string: Supply IC50 value. Item: C#CCCCn1c(Sc2cc(Br)cc(Br)c2)nc2c(N)ncnc21
Result string: 260

Query string: Supply IC50 value. Item: C#CCCCn1c(Sc2cc(Cl)c(Cl)cc2Cl)nc2c(N)ncnc21
Result string: 170

Query string: Supply IC50 value. Item: CC(Br)CCCn1c(Sc2cc(Cl)cc(Cl)c2)nc2c(N)ncnc21 (stereo not shown) [PDP-99A]
Result string: 1520

Query string: Supply IC50 value. Item: Nc1ncnc2c1nc(Sc1cc(Cl)cc(Cl)c1)n2CCCCCC(F)(F)F [PDP-101B]
Result string: 1650

Query string: Supply IC50 value. Item: N#CCCCn1c(Sc2cc(Cl)cc(Cl)c2)nc2c(N)ncnc21 [PDP-93A]
Result string: 450

Query string: Supply IC50 value. Item: C#CCCCn1cnc(N)c2nc(Sc3ccc(Cl)c(Cl)c3)nc1-2
Result string: 11100

Query string: Supply IC50 value. Item: CC(C)(C)NCCCn1c(Sc2cc(Cl)cc(I)c2)nc2c(N)ncnc21
Result string: 540

----------
- MEASURED_ON: Trap-1 (Homo sapiens)
- Sequence (Q12931 60-704): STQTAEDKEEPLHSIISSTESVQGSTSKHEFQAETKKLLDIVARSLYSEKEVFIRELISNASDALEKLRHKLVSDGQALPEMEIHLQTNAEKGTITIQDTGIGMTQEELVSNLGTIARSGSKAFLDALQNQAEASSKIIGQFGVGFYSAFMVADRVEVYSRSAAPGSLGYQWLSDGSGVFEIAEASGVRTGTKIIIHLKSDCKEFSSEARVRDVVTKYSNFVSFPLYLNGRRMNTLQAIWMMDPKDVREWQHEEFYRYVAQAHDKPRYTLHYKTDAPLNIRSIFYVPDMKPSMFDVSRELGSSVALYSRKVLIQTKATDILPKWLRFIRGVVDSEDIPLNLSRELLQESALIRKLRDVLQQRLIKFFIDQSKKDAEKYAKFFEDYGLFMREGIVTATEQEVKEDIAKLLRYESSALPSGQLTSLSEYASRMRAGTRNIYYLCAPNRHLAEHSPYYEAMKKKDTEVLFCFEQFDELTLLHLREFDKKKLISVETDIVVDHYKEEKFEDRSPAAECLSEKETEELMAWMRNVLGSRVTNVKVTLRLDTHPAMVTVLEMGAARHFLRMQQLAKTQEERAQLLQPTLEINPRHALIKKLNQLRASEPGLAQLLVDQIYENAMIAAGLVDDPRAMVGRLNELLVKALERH
- EXPERIMENTAL_CONTEXT: read-out: TRAP-1
Recorded pIC50 by entry
The read-out pIC50 is expressed as -log10 of concentration in moles per litre.

Example entries begin here.
[
  {
    "STRUCTURE_SMILES_STRING": "C#CCCCn1c(Sc2cc(Cl)c(Cl)cc2Cl)nc2c(N)ncnc21",
    "pIC50": 4.11
  },
  {
    "STRUCTURE_SMILES_STRING": "C#CCCCn1c(Sc2cc(C)ccc2C)nc2c(N)ncnc21",
    "pIC50": 3.69
  },
  {
    "STRUCTURE_SMILES_STRING": "C#CCCCn1c(Sc2cc(C)cc(C)c2)nc2c(N)ncnc21",
    "pIC50": 3.80
  }
]

Query string: Supply pIC50 value. Item: C#CCCCn1cnc(N)c2nc(Sc3ccc(C)cc3C)nc1-2
Result string: 4.27

Query string: Supply pIC50 value. Item: C#CCCCn1c(Sc2cc(Cl)ccc2Cl)nc2c(N)ncnc21
Result string: 5.29

Query string: Supply pIC50 value. Item: C#CCCCn1c(Sc2ccc(Cl)cc2Cl)nc2c(N)ncnc21
Result string: 3.84
